Each recorded value in this set is attributed to patent US20260091020A1.

# Procedure Text: Plasma PK of ANEB-001 and THC, 30 mg or 10 mg oral Compound 1 with 21 mg THC (Example 4)
# Format: in vivo, human
# Test Conditions: human, in vivo, 21 mg THC + 30 mg ANEB-001; read-out: THC plasma AUClast, GeoMean
Measured Quantity: AUC(0-t) (ng·h/mL)

CCCCCc1cc(O)c2c(c1)OC(C)(C)[C@@H]1CCC(C)=C[C@@H]21 [THC, Δ9-tetrahydrocannabinol]; 17.9

====

# Procedure Text: Plasma PK of ANEB-001 and THC, 50 and 100 mg oral Compound 1 with THC (Example 2)
# Assay type: in vivo, human
# Test Conditions: human, in vivo, 10 mg THC + 50 mg ANEB-001; read-out: THC plasma Cmax, Median
Measured Quantity: Cmax (ng/mL)

CCCCCc1cc(O)c2c(c1)OC(C)(C)[C@@H]1CCC(C)=C[C@@H]21 [THC, Δ9-tetrahydrocannabinol]; 3.12

====

# Procedure Text: Plasma PK of ANEB-001 and THC, 30 mg or 10 mg oral Compound 1 with 21 mg THC (Example 4)
# Type: in vivo, human
# Test Conditions: human, in vivo; 21 mg THC + Placebo; read-out: THC plasma tmax, Median
Measured Quantity: Tmax (min)

CCCCCc1cc(O)c2c(c1)OC(C)(C)[C@@H]1CCC(C)=C[C@@H]21 [THC, Δ9-tetrahydrocannabinol]; 40.2

====

# Procedure Text: Plasma PK of ANEB-001 and THC, 50 and 100 mg oral Compound 1 with THC (Example 2)
# Assay type: in vivo, human
# Test Conditions: human, in vivo, 10 mg THC + Placebo; 3 hrs; read-out: THC Concentration in Plasma, Median
Measured Quantity: concentration at 3 h

CCCCCc1cc(O)c2c(c1)OC(C)(C)[C@@H]1CCC(C)=C[C@@H]21 [THC, Δ9-tetrahydrocannabinol]; 0.838 ng/mL

====

# Procedure Text: Plasma PK of ANEB-001 and THC, 30 mg or 10 mg oral Compound 1 with 21 mg THC (Example 4)
# Type: in vivo, human
# Test Conditions: human, in vivo, 21 mg, 21 mg THC + Placebo; 03H00M; read-out: THC in Plasma (concentration), Mean
Measured Quantity: concentration at 3 h (ng/mL)

CCCCCc1cc(O)c2c(c1)OC(C)(C)[C@@H]1CCC(C)=C[C@@H]21 [THC, Δ9-tetrahydrocannabinol]; 3.23

====

# Procedure Text: Plasma PK of ANEB-001 and THC, 50 and 100 mg oral Compound 1 with THC (Example 2)
# Type: in vivo, human
# Test Conditions: human, in vivo, 10 mg THC + 100 mg ANEB-001; read-out: THC plasma AUClast, Median
Measured Quantity: AUC(0-t) (ng·h/mL)

CCCCCc1cc(O)c2c(c1)OC(C)(C)[C@@H]1CCC(C)=C[C@@H]21 [THC, Δ9-tetrahydrocannabinol]; 4.94

====

# Procedure Text: Plasma PK of ANEB-001 and THC, 30 mg or 10 mg oral Compound 1 with 21 mg THC (Example 4)
# Format: in vivo, human
# Test Conditions: human, in vivo, 21 mg THC + 30 mg ANEB-001; read-out: THC plasma AUClast, Median
Measured Quantity: AUC(0-t) (ng·h/mL)

CCCCCc1cc(O)c2c(c1)OC(C)(C)[C@@H]1CCC(C)=C[C@@H]21 [THC, Δ9-tetrahydrocannabinol]; 18.4
